Test system: FL5.12
MEASUREMENT PROTOCOL: Induction of vacuolation in mouse FL5.12A cells assessed as vacuolation score at 2.5 uM measured at 3 hrs by fluorescence microscopic analysis
Format: functional
Listing of recorded Activity by entry.
Form rule: numeric answer, no unit written next to it.

>  <COMPOUND>
CCCCCCCCCCc1ccc(CO[C@H]2CN[C@H](CO)C2)cc1.Cl

>  <RECORDED MEASUREMENT>
36

$$$$
>  <COMPOUND>
CCCCCCc1ccc(CO[C@@H]2CN[C@@H](CO)C2)cc1.Cl

>  <RECORDED MEASUREMENT>
0

$$$$
>  <COMPOUND>
CCCCCC/C=C/c1ccc([C@H]2CCN(C(C)=O)[C@@H]2CO)cc1

>  <RECORDED MEASUREMENT>
2

$$$$

## Task May I ask what Activity has been recorded for CCCCCCCCCCCCCCC[C@@H](O)[C@@H](N)CO [DIHYDROSPINGOSINE] ?
## Result 38

## Task May I ask what Activity has been recorded for CCCCCCCCc1ccc([C@@H]2CCN[C@H]2CO)cc1.Cl ?
## Result 53

## Task May I ask what Activity has been recorded for CCCCCCCCCC/C=C/c1ccc(CO[C@@H]2CN[C@@H](CO)C2)cc1.Cl ?
## Result 33

## Task May I ask what Activity has been recorded for CCCCCCCCCCCCC/C=C/[C@@H](O)[C@@H](N)CO [SPHINGOSINE] ?
## Result 57

## Task May I ask what Activity has been recorded for CCCCCCCCCCCCO[C@@H]1CN[C@@H](CO)C1.Cl ?
## Result 53

## Task May I ask what Activity has been recorded for CCCCCCCCc1ccc(CO[C@H]2CN[C@H](CO)C2)cc1.Cl ?
## Result 47

## Task May I ask what Activity has been recorded for CCCCCCCCc1ccc(CO[C@@H]2CN[C@@H](CO)C2)cc1.Cl ?
## Result 33

## Task May I ask what Activity has been recorded for CCCCCCCCCCCCc1ccc(CO[C@H]2CN[C@H](CO)C2)cc1.Cl ?
## Result 30

## Task May I ask what Activity has been recorded for CCCC/C=C/c1ccc(CO[C@@H]2CN[C@@H](CO)C2)cc1.Cl ?
## Result 0

## Task May I ask what Activity has been recorded for CCCCCCCCc1ccc(CCC(N)(CO)CO)cc1 [FINGOLIMOD] ?
## Result 82

## Task May I ask what Activity has been recorded for CCCCCCCCCCCC/C=C/c1ccc(CO[C@H]2CN[C@H](CO)C2)cc1.Cl ?
## Result 1

## Task May I ask what Activity has been recorded for CCCCCCCCC/C=C/CO[C@@H]1CN[C@@H](CO)C1.Cl ?
## Result 9

## Task May I ask what Activity has been recorded for CCCCCCCCCC/C=C/c1ccc(CO[C@H]2CN[C@H](CO)C2)cc1.Cl ?
## Result 76

## Task May I ask what Activity has been recorded for CCCCCCCCc1ccc([C@H]2CCN[C@@H]2CO)cc1.Cl ?
## Result 81

## Task May I ask what Activity has been recorded for CCCCCC/C=C/c1ccc(CO[C@H]2C[C@H](CO)N(C)C2)cc1.Cl ?
## Result 26

## Task May I ask what Activity has been recorded for CCCCCC/C=C/c1ccc(CO[C@@H]2CN[C@@H](CO)C2)cc1.Cl ?
## Result 27

## Task May I ask what Activity has been recorded for CCCCCCCCCCCCO[C@H]1CN[C@H](CO)C1.Cl ?
## Result 36

## Task May I ask what Activity has been recorded for CCCCCCCCCCCCC/C=C/[C@@H](O)[C@H](CO)N(C)C [DIMETHYLSPINGOSINE] ?
## Result 72

## Task May I ask what Activity has been recorded for CCCCCCCCc1ccc([C@H]2CCN(C(C)=O)[C@@H]2CO)cc1 ?
## Result 0

## Task May I ask what Activity has been recorded for CCCCCCCCCCCC/C=C/c1ccc(CO[C@@H]2CN[C@@H](CO)C2)cc1.Cl ?
## Result 8

## Task May I ask what Activity has been recorded for CCCCCCCCCCCCc1ccc(CO[C@@H]2CN[C@@H](CO)C2)cc1.Cl ?
## Result 3
